pIC50: −log10 of the molar value.
Reported pIC50, Autotaxin (Homo sapiens, UniProt Q13822).

substancesmiles=CC(C)[C@@H](NC(=O)c1cccc(OC(F)(F)F)c1)C(=O)N1CCC(C)(Nc2ccccc2)CC1 quantitymeasured=pIC50 reportedmeasurement="5.30 to 6.30"
substancesmiles=CC(C)[C@@H](NC(=O)c1cc(OC(F)(F)F)ccc1F)C(=O)N1CCC(C)(Nc2ccccc2)CC1 quantitymeasured=pIC50 reportedmeasurement="6.30 to 7.00"
substancesmiles=COc1ccc(NC2(C)CCN(C(=O)[C@H](NC(=O)c3cc(OC(F)(F)F)ccc3F)C(C)C)CC2)cc1 quantitymeasured=pIC50 reportedmeasurement="6.30 to 7.00"

Entry COCC1(Nc2ccccc2)CCN(C(=O)[C@H](NC(=O)c2cccc(C)c2)C(C)C)CC1 , system Autotaxin (Homo sapiens, UniProt Q13822): what pIC50 was measured?
≤ 5.00

Data provenance is patent US20170037007A1.
